# experimental target: Recombinant human TPH1 (MBP tagged) (Homo sapiens)
# Construct: cloning full length human TPH1 cDNA in to a bacterial pMAL-c5E expression vector; made in house; host or cells: E. coli BL21 (DE3)
# Sequence (P17752 whole entry): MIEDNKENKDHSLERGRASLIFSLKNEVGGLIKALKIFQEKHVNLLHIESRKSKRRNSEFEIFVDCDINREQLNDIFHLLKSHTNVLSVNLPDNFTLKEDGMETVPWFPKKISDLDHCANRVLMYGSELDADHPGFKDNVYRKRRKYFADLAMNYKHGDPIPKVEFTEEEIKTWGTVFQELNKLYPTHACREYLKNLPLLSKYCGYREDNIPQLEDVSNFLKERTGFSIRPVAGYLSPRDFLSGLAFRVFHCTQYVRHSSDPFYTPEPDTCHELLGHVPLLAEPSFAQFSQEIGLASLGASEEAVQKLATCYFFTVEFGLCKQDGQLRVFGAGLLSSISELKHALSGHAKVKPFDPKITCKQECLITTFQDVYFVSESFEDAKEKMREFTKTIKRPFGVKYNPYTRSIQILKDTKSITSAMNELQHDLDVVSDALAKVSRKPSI
# assay explanation: TPH1 in vitro inhibition assay (kinetic fluorescence)
# Type: biochemical
# study conditions: read-out: TPH1 Range (TPH1 inhibition IC50)
Listing of recorded IC50 by entry.

compound	IC50
Nc1nc(O[C@H](c2ccc(-c3cccnc3)cc2)C(F)(F)F)cc(N2CCC3(CC2)CN[C@H](C(=O)O)C3)n1 [Example 55aw]	300 to 3000 nM
Nc1nc(O[C@H](c2ccc(Cl)cc2-c2cc(Cl)cc(C(F)(F)F)c2)C(F)(F)F)cc(N2CCC3(CC2)CN[C@H](C(=O)O)C3)n1 [Example 34ap]	50 to 300 nM
Cc1ccn(-c2cc(-c3cccc(C#N)c3)ccc2[C@@H](Oc2cc(N3CCC4(CC3)CN[C@H](C(=O)O)C4)nc(N)n2)C(F)(F)F)n1	< 50 nM
Nc1nc(O[C@H](c2ccc(Cl)cc2-c2cccc(C(=O)NCCN3CCCC3)c2)C(F)(F)F)cc(N2CCC3(CC2)CN[C@H](C(=O)O)C3)n1 [Example 34cf]	300 to 3000 nM
CCc1ccc([C@@H](Oc2cc(N3CCC4(CC3)CN[C@H](C(=O)O)C4)nc(N)n2)C(F)(F)F)c(-n2ccc(C)n2)c1 [Example 12a]	50 to 300 nM

# ---- query compound ----
q: Item CCOc1ccc(-c2ccc([C@@H](Oc3cc(N4CCC5(CC4)CN[C@H](C(=O)O)C5)nc(N)n3)C(F)(F)F)c(-n3ccc(C)n3)c2)cc1 has what recorded IC50?
a: < 50 nM
